system-under-test: human atypical chemokine receptor 3 (ACKR3) (human), P25106
Sequence (P25106 whole entry): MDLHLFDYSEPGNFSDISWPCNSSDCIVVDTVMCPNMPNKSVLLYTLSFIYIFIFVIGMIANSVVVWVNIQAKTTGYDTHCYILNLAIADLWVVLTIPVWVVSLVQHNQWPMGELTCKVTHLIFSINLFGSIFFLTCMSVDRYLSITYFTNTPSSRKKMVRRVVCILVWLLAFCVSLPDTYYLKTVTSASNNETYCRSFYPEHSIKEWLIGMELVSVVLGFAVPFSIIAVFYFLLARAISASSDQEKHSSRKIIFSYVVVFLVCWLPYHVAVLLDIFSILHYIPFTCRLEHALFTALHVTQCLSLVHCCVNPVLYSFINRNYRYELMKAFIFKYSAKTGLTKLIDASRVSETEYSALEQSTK
assay-notes: binding competition with CXCL12-AF647, flow cytometry
test-settings: chains peptide; remark: other sources report otherwise
pIC50: −log10 of the molar value.
assay-readout: pIC50

(Q) For the binder FGGFTGARKSARKLANQ [nociceptin, Q13519 130-146] , give its measured pIC50 value.
(A) < 5.00
